Test system: MCC-13
Assay: qHTS assay to identify novel small-molecules to repurpose for Merkel cell carcinoma treatment (AID 1296009); note: nearly all actives have a fitted effect of over 60% in size
Conditions: MCC and control cell lines, CellTiter-Glo viability, 72 h; series mostly up to 46 µM
Inconclusive results are not listed. Calls of active or inactive are those of the source. Calls come from the whole dose curve; as a rule, active = well fitted inhibition curve with a large enough effect; inconclusive = small, poorly fitted or top-dose-only effect; inactive = flat fitted curve, though single readings scatter.
Select the correct class. Options are Y for active, N for inactive and nothing else.

Status in this test for `C#Cc1cccc(Nc2ncnc3cc(OC)c(OCCCCCCC(=O)NO)cc23)c1` ?
Y

How did this test come out for `CC=CC1=C(C(=O)O)N2C(=O)[C@H](NC(=O)[C@H](N)c3ccc(O)cc3)[C@@H]2SC1` ?
N

Tell me the assay call for `O=C(Nc1nc2cccc(-c3ccc(CN4CCS(=O)(=O)CC4)cc3)n2n1)C1CC1` please.
N

Tell me the assay call for Cn1c2cc(S(C)=O)sc2c2cnn(Cc3cccc(N)c3)c(=O)c21 (stereo unspecified) please.
N

Write down the call the test reported for this compound. Item: `CN1CC[C@@H](c2c(O)cc(O)c3c(=O)cc(-c4ccccc4Cl)oc23)[C@@H](O)C1`
Y

// outcome(item) with item = `O=C(O)Cn1nnc(-c2cc(N3CCC(Oc4cc(F)ccc4Br)CC3)no2)n1`
N

Name the outcome recorded for `C1Cc2[nH]nc(-c3nn[nH]n3)c2C1` in the assay.
N

What did the test return for `COc1cc2c(Oc3ccc4[nH]c(C)cc4c3F)ncnc2cc1OCCCN1CCCC1` ?
N

GET /call?item= `Cc1cn2c(-c3cn[nH]c3)cnc2c(Nc2ccc(C(=O)N3CCNCC3)cc2F)n1` returns the recorded outcome of this test.
N

Each compound tested received a call. Report the one for `CC(=O)OCCN1C(=O)c2c(C)nc3ccc(S(=O)(=O)N4CCOCC4)cc3c2C1=O` .
N

Field: outcome | Entry: `COc1cc(C(=O)N2CCC(N3CCN(C)CC3)CC2)ccc1Nc1ncc2c(n1)N(C)c1ccccc1C(=O)N2C`
N

* * *

Test: Quantitative High-Throughput drug screen in 47 multiple myeloma cell lines against the NCATS MIPE library collection: EJM_DSMZ cell viability assay (AID 1918926; note: nearly all actives have a fitted effect of over 30% in size)
Conditions: EJM myeloma cell viability, CellTiter-Glo ATP, 48 h; series mostly up to 45.8 µM
Inconclusive results are not listed. Activity calls are given as the source filed them. Calls follow the shape of the dose curve; as a rule, active = well fitted cell-killing curve with a large enough effect; inconclusive = small, poorly fitted or top-dose-only effect, or effect the other way; inactive = no such curve, though single readings can be large or run the other way.
Hi! Could you answer with just one of these? active, inactive

# fetch the recorded call for `Cc1cc(Nc2ncnc3ccc(-c4ccc(CNCCS(C)(=O)=O)o4)cc23)ccc1Oc1ccn2ncnc2c1` here
active

Could you please tell me the result logged for `COc1cc2c(NC3CCN(C(C)C)CC3)nc(C3CCCCC3)nc2cc1OCCCN1CCCC1` in this assay?
active

Recorded test outcome, item `Nc1ccc(S(=O)(=O)Nc2ncccn2)cc1`
inactive

Hi team, can someone confirm the assay call for `C=CC(=O)Nc1cc2c(Nc3ccc(F)c(Cl)c3)ncnc2cc1C#CC(C)(C)N1CCN(C)CC1` ?
active

What is the recorded call for this molecule in the test? `CC(C)(C)OC(=O)Nc1ccc(-c2cc(C(=O)NCCCCCCC(=O)NO)no2)cc1`
active

Outcome logged for `COC(=O)C[C@](O)(CCCC(C)(C)O)C(=O)O[C@@H]1C(OC)=C[C@]23CCCN2CCc2cc4c(cc2[C@H]13)OCO4` in this assay:
inactive

Record request — test call for `O=C(Nc1cc(C(F)(F)F)cc(C(F)(F)F)c1)c1cc(Cl)ccc1O`
active

I'd appreciate the recorded outcome for `O=C(C=Cc1cccnc1)NCCCCC1CCN(C(=O)c2ccccc2)CC1` from this test.
inactive

Each molecule tested received a call. Report the one for CC1COC2(CCN(c3nc(=O)c4cc(C(F)(F)F)cc([N+](=O)[O-])c4s3)CC2)O1 (stereo not drawn) .
inactive

Look up the recorded call for `Cn1c(=O)n(-c2ccc(C(C)(C)C#N)cc2)c2c3cc(-c4cnc5ccccc5c4)ccc3ncc21` in this test.
active

// return assay outcome for `O=C(O)Cn1nnc(-c2cc(N3CCC(Oc4cc(F)ccc4Br)CC3)no2)n1`
inactive

Hi, do you know how `COc1cc2c(Oc3ccc(NC(=O)C4(C(=O)Nc5ccc(F)cc5)CC4)cc3F)ccnc2cc1OCCCN1CCOCC1` came out in this test?
active

Assay result, entry `COc1cc(Nc2ncc(F)c(Nc3ccc4c(n3)N(COP(=O)(O)O)C(=O)C(C)(C)O4)n2)cc(OC)c1OC` — outcome?
active

* * *

Tested on: JEG-3
Assay: Primary qHTS to identify gynecologic anti-cancer compounds using libraries of approved drugs and bioactive compounds (AID 1345084); note: nearly all actives have a fitted effect of over 55% in size
Details: Gynecologic cancer cell panel viability, ATPlite luminescence, 48 h; series mostly up to 57.5 µM
Results filed as inconclusive are left out. The source made the active and inactive calls. Calls come from the whole dose curve; as a rule, active = well fitted cell-killing curve with a large enough effect; inconclusive = small, poorly fitted or top-dose-only effect, or effect the other way; inactive = flat fitted curve, though single readings scatter.
Permitted responses: True for active, False for inactive

Outcome logged for `O=C(O)CCCc1c[nH]c2ccccc12` in this assay:
False

Dear colleague, could you share the recorded outcome for `c1ccc2c(CCNc3ccc(Nc4ccncc4)cc3)c[nH]c2c1` when you have a moment?
False

For `CN(C)CC(C)(C)CNc1nn2c(-c3ccccc3)nnc2cc1C1CCC1` , what call appears in the results of this test?
False

For this molecule, state the assay outcome: `Cn1c2ccccc2c2c3c(c4c5ccccc5n(CCC#N)c4c21)CNC3=O`
False

Which outcome did this test record for the molecule `CNc1nccc(-c2cccnc2Oc2cc(C(=O)Nc3cccc(C(F)(F)F)c3)ccc2C)n1` ?
False

Fill in: this test's call for `C=CCn1c(=O)c2cnc(Nc3ccc(N4CCN(C)CC4)cc3)nc2n1-c1cccc(C(C)(C)O)n1` is ___
True

Write down the call the test reported for this molecule. Item: `CNC(=O)c1c(F)cccc1Nc1nc(Nc2cc3c(cc2OC)CCN3C(=O)CN(C)C)nc2[nH]ccc12`
False

// outcome(item) with item = `CCc1c2c(nc3ccc(O)cc13)-c1cc3c(c(=O)n1C2)COC(=O)[C@]3(O)CC`
True

Please indicate how the test categorized `Cn1c(=O)n(-c2ccc(C(C)(C)C#N)cc2)c2c3cc(-c4cnc5ccccc5c4)ccc3ncc21` .
False

Hi, do you know how `COc1cc2c(Oc3ccc(NC(=O)C4(C(=O)Nc5ccc(F)cc5)CC4)cc3F)ccnc2cc1OCCCN1CCOCC1` came out in this test?
False

Any idea what this test logged for `Nc1nccc(Oc2ccc(NC(=O)c3c[nH]cc(-c4ccc(F)cc4)c3=O)cc2F)c1Cl` ?
False

Test call for this molecule, please: `CCCCCN(CCC12CC3CC(CC(C3)C1)C2)C(=O)NCCCc1ccncc1`
False

// outcome(item) with item = `COc1ccc(-n2nc(C(N)=O)c3c2C(=O)N(c2ccc(N4CCCCC4=O)cc2)CC3)cc1`
False

* * *

Test: Quantitative High-Throughput drug screen in 47 multiple myeloma cell lines against the NCATS MIPE library collection: OCIMY7_PLB cell viability assay (AID 1918987); note: nearly all actives have a fitted effect of over 65% in size
Settings: OCI-MY7 myeloma viability, CellTiter-Glo ATP, 48 h; series mostly up to 45.8 µM
Records with an inconclusive call do not appear. The source made the active and inactive calls. The call rests on the fitted dose curve; in most records, active means well fitted cell-killing curve with a large enough effect; inconclusive means small, poorly fitted or top-dose-only effect, or effect the other way; inactive means no such curve, though single readings can be large or run the other way.
# output must be one of active, inactive

GET /call?item= `COc1ccc(-n2nc(C(N)=O)c3c2C(=O)N(c2ccc(N4CCCCC4=O)cc2)CC3)cc1` returns the recorded outcome of this test.
inactive

Given `CNC(=O)c1c(F)cccc1Nc1nc(Nc2cc3c(cc2OC)CCN3C(=O)CN(C)C)nc2[nH]ccc12` , state the outcome it received in this test.
active

Answer briefly: the call reported for `CC(C)(C)NC(=O)[C@H]1CN(Cc2cccnc2)CCN1C[C@@H](O)C[C@@H](Cc1ccccc1)C(=O)N[C@H]1c2ccccc2C[C@H]1O` in this assay.
active

How did this test come out for `O=C(Nc1ncc(-c2cc(C(F)F)nn2-c2c(Cl)cccc2Cl)s1)C1CC1` ?
active

Dear all, I need the recorded test outcome for `CNC(=O)c1cc(Oc2ccc(NC(=O)Nc3cc(C(C)(C)C)nn3-c3ccc4ncccc4c3)c(F)c2)ccn1` , thank you.
active

Write down the call the test reported for this molecule. Item: `C[C@@H](Oc1cc(-c2cnn(C3CCNCC3)c2)cnc1N)c1c(Cl)ccc(F)c1Cl`
active

For `Nc1nccc(Oc2ccc(NC(=O)c3c[nH]cc(-c4ccc(F)cc4)c3=O)cc2F)c1Cl` , what call appears in the results of this test?
active

Which outcome did this test record for the molecule `Nc1cc(C(F)(F)F)c(-c2cc(N3CCOCC3)nc(N3CCOCC3)n2)cn1` ?
active

For CC(NCc1ccc2c(c1)nc(NC(=O)c1ccc(-c3cn[nH]c3)s1)n2CC(C)(C)O)C(C)(C)C (stereo not given) , what call appears in the results of this test?
active

Outcome? `Nc1ccn([C@@H]2O[C@H](CO)[C@H](O)C2(F)F)c(=O)n1`
active

* * *

Test: qHTS Screen of the MIPE 4.0 Collection Against Ewings Sarcoma (TC71) (AID 1259253); note: nearly all actives have a fitted effect of over 40% in size
Conditions: TC71 Ewing sarcoma viability, CellTiter-Glo, 48 h; series mostly up to 45.8 µM
Experimental: There is a large unmet medical need for treatments for Ewing sarcoma, a pediatric sarcoma. […] Using the NCATS developed oncology compound library called the Mechanism of Interrogation Plate (MIPE), four Ewing sarcoma cell lines were evaluated (TC32, TC71, RDES, EW8). Compounds, in a 12-point titration series, were incubated with cells for 48 hours and the read out was cell viability (CellTiter-Glo from Promega). […]
Results filed as inconclusive are left out. Activity calls are given as the source filed them. Calls follow the shape of the dose curve; as a rule, active = well fitted inhibition curve with a large enough effect; inconclusive = small, poorly fitted or top-dose-only effect; inactive = no such curve, though single readings can be large or run the other way.
Response enum: true (1) (active), false (0) (inactive)

Hey, what did the test say about `Fc1cc(-c2cccc3ncc(-c4cnn(C5CCNCC5)c4)nc23)cc(F)c1CN1CCOCC1` ?
true (1)

Assay result, entry `CC(C)(O)c1cc2nc(-c3cnc(N)nc3)nc(N3CCOCC3)c2s1` — outcome?
true (1)

Check the results log: what was the call for `Cc1c(C)n(Cc2ccc(-c3ccccc3C(=O)O)cc2)c2ccc(C(=O)N[C@@H](C)c3ccc([N+](=O)[O-])cc3)cc12` ?
false (0)

Outcome logged for `Nc1ccn([C@@H]2CS[C@H](CO)O2)c(=O)n1` in this assay:
false (0)
